System: primary cultured cells of mouse fetus-derived dorsal root ganglia (DRGs)
Assay Name: Suppression of axonal degeneration after axotomy in DRG explant culture
Format: cell-based
Assay Conditions: Mus musculus; minimum concentration at which axonal degeneration was suppressed (DI 0.3 or less); 24 hours after axotomy; read-out: Evaluation on protection against degeneration
Property Name: minimal effective concentration

## Task minimal effective concentration for `O=C(NCc1ccc(NC(=O)c2ccccc2F)nc1)c1cccnc1` ?
## Result ≤ 0.01 µM

## Task minimal effective concentration for `O=C(NCCCOCCOCCCNC(=O)c1cccnc1)c1ccccc1` ?
## Result 0.01 to 0.1 µM

## Task minimal effective concentration for `O=C(NCCCCCCN1CCN(CCOC(=O)c2cccnc2)CC1)c1cccnc1` ?
## Result ≤ 0.01 µM

## Task minimal effective concentration for `O=C(NCc1ccc(NC(=O)c2ccc(OC(F)(F)F)cc2)nc1)c1cccnc1` ?
## Result ≤ 0.01 µM

## Task minimal effective concentration for `C=Cc1ccc(C(=O)Nc2ccc(CNC(=O)c3cccnc3)cn2)cc1` ?
## Result ≤ 0.01 µM

---

Tested on: primary cultured cells of mouse fetus-derived dorsal root ganglia (DRGs)
Assay Name: Suppression of axonal degeneration after axotomy in DRG explant culture
Type: cell-based
Assay Conditions: Mus musculus; minimum concentration at which axonal degeneration was suppressed (DI 0.3 or less); 24 hours after axotomy; read-out: Evaluation on protection against degeneration
Provide the reported minimal effective concentration of each item.

## Task minimal effective concentration for O=C(/C=C/c1cccnc1)NCCCOc1ccc(CNC(=O)c2cccnc2)cc1 [compound 53] ?
## Result ≤ 0.01 µM

## Task minimal effective concentration for COc1cccc(OCCNC(=O)/C=C/c2cccnc2)c1 [compound 19] ?
## Result ≤ 0.01 µM

## Task minimal effective concentration for O=C(COc1ccc(OCc2ccccc2)cc1)Nc1ccc(CNC(=O)c2cccnc2)cn1 [Compound 178] ?
## Result 0.01 to 0.1 µM

## Task minimal effective concentration for CC(=O)NCc1ccc(OCCOCCNC(=O)/C=C/c2cccnc2)cc1 [compound 22] ?
## Result ≤ 0.01 µM

## Task minimal effective concentration for O=C(NCc1ccc(NC(=O)c2ccc(Cl)cc2)nc1)c1cccnc1 [Compound 118] ?
## Result ≤ 0.01 µM

## Task minimal effective concentration for O=C(NCc1ccc(NC(=O)c2cccc(OC(F)(F)F)c2)nc1)c1cccnc1 [compound 86] ?
## Result 0.01 to 0.1 µM

## Task minimal effective concentration for O=C(NCCCOc1ccc(CNC(=O)c2cccnc2)cc1)c1cccnc1 [compound 52] ?
## Result ≤ 0.01 µM

## Task minimal effective concentration for CC(C)C(=O)Nc1ccc(CNC(=O)c2cccnc2)cn1 [compound 72] ?
## Result 0.01 to 0.1 µM

## Task minimal effective concentration for Cc1ccccc1C(=O)Nc1ccc(CNC(=O)c2cccnc2)cn1 [Compound 130] ?
## Result ≤ 0.01 µM

## Task minimal effective concentration for COC(=O)c1ccc(OCCOCCNC(=O)c2cccnc2)cc1 [compound 32] ?
## Result ≤ 0.01 µM

## Task minimal effective concentration for CN(CCCCCCN(C)C(=O)c1cccnc1)C(=O)c1cccnc1 [compound 102] ?
## Result ≤ 0.01 µM

## Task minimal effective concentration for O=C(NCc1ccc(NC(=O)c2cccnc2)nc1)c1cccnc1 [Compound 120] ?
## Result ≤ 0.01 µM

## Task minimal effective concentration for O=C(Nc1ccc(CCc2ccc(NC(=O)c3cccnc3)cc2)cc1)c1cccnc1 [compound 101] ?
## Result ≤ 0.01 µM

## Task minimal effective concentration for O=C(CCc1ccc(OC(F)(F)F)cc1)Nc1ccc(CNC(=O)c2cccnc2)cn1 [Compound 170] ?
## Result ≤ 0.01 µM

## Task minimal effective concentration for C#CCOc1cncc(C(=O)Nc2ccc(CNC(=O)c3cccnc3)cc2)c1 [compound 67] ?
## Result ≤ 0.01 µM

## Task minimal effective concentration for O=C(NCc1ccc(NC(=O)c2ccccn2)nc1)c1cccnc1 [Compound 125] ?
## Result ≤ 0.01 µM

## Task minimal effective concentration for O=C(NCc1ccc(NC(=O)c2cccc(F)c2)nc1)c1cccnc1 [Compound 116] ?
## Result ≤ 0.01 µM

## Task minimal effective concentration for N#Cc1ccc(OCC(=O)Nc2ccc(CNC(=O)c3cccnc3)cn2)cc1 [Compound 174] ?
## Result 0.01 to 0.1 µM

## Task minimal effective concentration for O=C(NCCCCCCCCOCCOCCOCCO)c1cccnc1 [compound 8] ?
## Result ≤ 0.01 µM

---

System: primary cultured cells of mouse fetus-derived dorsal root ganglia (DRGs)
Assay Name: Suppression of axonal degeneration after axotomy in DRG explant culture
Assay type: cell-based
Assay Conditions: Mus musculus; minimum concentration at which axonal degeneration was suppressed (DI 0.3 or less); 24 hours after axotomy; read-out: Evaluation on protection against degeneration
Provide the reported minimal effective concentration of each item.

## Task minimal effective concentration for `CC(C)(C)OC(=O)NCCCOCCOCCCNC(=O)c1cccnc1` ?
## Result ≤ 0.01 µM

## Task minimal effective concentration for `O=C(NCCCCCCCCOCCOc1ccc([N+](=O)[O-])c2nonc12)c1cccnc1` ?
## Result ≤ 0.01 µM

## Task minimal effective concentration for `CCCCC(=O)Nc1ccc(CNC(=O)c2cccnc2)cn1` ?
## Result ≤ 0.01 µM

## Task minimal effective concentration for `COCOc1cccc(OCCOCCNC(=O)/C=C/c2cccnc2)c1` ?
## Result ≤ 0.01 µM

## Task minimal effective concentration for `O=C(/C=C/c1cccnc1)NCCCNC(=O)/C=C/c1cccnc1` ?
## Result ≤ 0.01 µM

## Task minimal effective concentration for `O=C(Cc1ccc(OCc2ccccc2)cc1)Nc1ccc(CNC(=O)c2cccnc2)cn1` ?
## Result 0.01 to 0.1 µM

## Task minimal effective concentration for `CC(C)CCC(=O)Nc1ccc(CNC(=O)c2cccnc2)cn1` ?
## Result ≤ 0.01 µM

## Task minimal effective concentration for `O=C(/C=C/c1cccnc1)NCCOCCOc1ccc(CNC(=O)c2ccccc2)cc1` ?
## Result ≤ 0.01 µM

## Task minimal effective concentration for `O=C(Cc1ccc(Cl)cc1)Nc1ccc(CNC(=O)c2cccnc2)cn1` ?
## Result ≤ 0.01 µM

## Task minimal effective concentration for `O=C(/C=C/c1ccc(C(F)(F)F)cc1)Nc1ccc(CNC(=O)c2cccnc2)cn1` ?
## Result ≤ 0.01 µM

## Task minimal effective concentration for `COCOc1cccc(OCCCNC(=O)/C=C/c2cccnc2)c1` ?
## Result ≤ 0.01 µM

## Task minimal effective concentration for `CC(C)(C)CC(=O)Nc1ccc(CNC(=O)c2cccnc2)cn1` ?
## Result ≤ 0.01 µM

## Task minimal effective concentration for `O=C(NCc1ccc(NC(=O)c2ccccc2)nc1)c1cnc2ccccc2c1` ?
## Result 0.1 to 1 µM

## Task minimal effective concentration for `O=C(NCc1cccc(CNC(=O)c2cccnc2)n1)c1cccnc1` ?
## Result 0.1 to 1 µM

## Task minimal effective concentration for `O=C(NCc1ccc(NC(=O)C2COC2)cc1)c1cccnc1` ?
## Result 0.01 to 0.1 µM

## Task minimal effective concentration for `O=C(NCCOCCOCCNC(=O)c1cccnc1)c1cccnc1` ?
## Result ≤ 0.01 µM

## Task minimal effective concentration for `O=C(NCc1ccc(NC(=O)c2cccc3ccccc23)nc1)c1cccnc1` ?
## Result 0.01 to 0.1 µM

## Task minimal effective concentration for `O=C(/C=C/c1cccnc1)NCCCCCCNC(=O)/C=C/c1cccnc1` ?
## Result ≤ 0.01 µM

## Task minimal effective concentration for `CCCCC(=O)N(C(=O)CCCC)c1ccc(CNC(=O)c2cccnc2)cn1` ?
## Result ≤ 0.01 µM

## Task minimal effective concentration for `O=C(/C=C/c1cccnc1)Nc1ccc(CNC(=O)c2ccccc2)cc1` ?
## Result ≤ 0.01 µM

## Task minimal effective concentration for `CC(C)(C)C(=O)Nc1ccc(CNC(=O)c2cccnc2)cn1` ?
## Result ≤ 0.01 µM

## Task minimal effective concentration for `O=C(NCc1ccc(NC(=O)c2ccc(-c3ccccc3)cc2)nc1)c1cccnc1` ?
## Result ≤ 0.01 µM

## Task minimal effective concentration for `O=C(NCc1ccc(NC(=O)C2CCC2)cc1)c1cccnc1` ?
## Result ≤ 0.01 µM

## Task minimal effective concentration for `O=C(NCc1ccc(CNC(=O)c2ccccc2)nc1)c1cccnc1` ?
## Result 0.01 to 0.1 µM

## Task minimal effective concentration for `O=C(Nc1ccccc1CCc1ccccc1NC(=O)c1cccnc1)c1cccnc1` ?
## Result 0.01 to 0.1 µM

## Task minimal effective concentration for `O=C(/C=C/c1cccnc1)NCCCOc1ccc(CNC(=O)c2ccccc2)cc1` ?
## Result ≤ 0.01 µM

## Task minimal effective concentration for `O=C(NCc1ccc(NC(=O)c2ccccc2)c(Cl)c1)c1cccnc1` ?
## Result ≤ 0.01 µM

## Task minimal effective concentration for `C/C(=C\C(=O)NCCOCCOc1ccc(CNC(=O)c2cccnc2)cc1)c1cccnc1` ?
## Result ≤ 0.01 µM

## Task minimal effective concentration for `O=C(NCc1ccc(NC(=O)c2ccc3ccccc3c2)nc1)c1cccnc1` ?
## Result ≤ 0.01 µM

## Task minimal effective concentration for `C/C(=C\C(=O)NCCOCCNC(=O)/C=C(\C)c1cccnc1)c1cccnc1` ?
## Result ≤ 0.01 µM

## Task minimal effective concentration for `O=C(NCCOCCOc1ccc(CNC(=O)c2ccccc2)cc1)c1cccnc1` ?
## Result 0.01 to 0.1 µM

## Task minimal effective concentration for `CC#CC(=O)Nc1ccc(CNC(=O)c2cccnc2)cn1` ?
## Result 0.01 to 0.1 µM

## Task minimal effective concentration for `O=C(/C=C/c1cccnc1)Nc1ccc(CNC(=O)c2cccnc2)cn1` ?
## Result ≤ 0.01 µM

## Task minimal effective concentration for `Cc1ccc(C(=O)Nc2ccc(CNC(=O)/C=C/c3cccnc3)cn2)cc1` ?
## Result ≤ 0.01 µM

## Task minimal effective concentration for `Cc1ccc(/C=C/C(=O)Nc2ccc(CNC(=O)c3cccnc3)cn2)cc1` ?
## Result ≤ 0.01 µM

## Task minimal effective concentration for `O=C(NCc1ccc(NC(=O)c2cc(F)cc(F)c2)nc1)c1cccnc1` ?
## Result ≤ 0.01 µM

## Task minimal effective concentration for `O=C(NCCOCCOc1cccc(O)c1)c1cccnc1` ?
## Result 0.01 to 0.1 µM
